- test.target: αIIbβ3 integrin (Homo sapiens, UniProt P05106+P08514)
- Construct: from tissue; host or cells: human platelets (Triton X-100 lysate)
- Sequence (P08514 32-887 limits assumed, one chain of several): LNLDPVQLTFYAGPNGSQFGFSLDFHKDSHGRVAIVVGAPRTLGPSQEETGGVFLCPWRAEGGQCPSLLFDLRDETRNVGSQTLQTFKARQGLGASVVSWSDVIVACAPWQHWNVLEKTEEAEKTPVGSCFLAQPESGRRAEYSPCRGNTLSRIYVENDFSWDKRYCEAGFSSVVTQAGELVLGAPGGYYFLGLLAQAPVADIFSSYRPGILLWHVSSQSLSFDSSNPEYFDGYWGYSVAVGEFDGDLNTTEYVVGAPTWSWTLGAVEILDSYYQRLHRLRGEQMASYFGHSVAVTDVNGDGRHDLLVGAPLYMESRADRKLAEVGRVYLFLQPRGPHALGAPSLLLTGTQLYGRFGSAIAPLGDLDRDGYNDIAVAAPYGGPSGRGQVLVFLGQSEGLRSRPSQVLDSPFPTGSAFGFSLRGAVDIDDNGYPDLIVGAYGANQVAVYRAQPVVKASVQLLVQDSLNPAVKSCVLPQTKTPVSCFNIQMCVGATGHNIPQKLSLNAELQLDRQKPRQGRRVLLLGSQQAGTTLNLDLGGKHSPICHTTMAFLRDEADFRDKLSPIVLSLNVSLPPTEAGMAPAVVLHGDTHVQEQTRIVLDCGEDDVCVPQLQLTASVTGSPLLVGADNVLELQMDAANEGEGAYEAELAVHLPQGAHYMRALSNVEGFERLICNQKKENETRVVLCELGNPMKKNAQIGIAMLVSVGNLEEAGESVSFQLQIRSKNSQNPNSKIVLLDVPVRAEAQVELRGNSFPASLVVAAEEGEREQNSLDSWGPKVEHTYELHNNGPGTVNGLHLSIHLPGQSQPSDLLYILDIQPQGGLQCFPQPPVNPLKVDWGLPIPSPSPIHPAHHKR
- Sequence (P08514 891-1039 partner limits assumed, one chain of several): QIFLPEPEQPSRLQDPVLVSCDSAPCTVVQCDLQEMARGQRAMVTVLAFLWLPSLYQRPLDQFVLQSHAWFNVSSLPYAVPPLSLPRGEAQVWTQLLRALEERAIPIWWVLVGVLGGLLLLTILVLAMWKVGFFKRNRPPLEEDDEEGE
- run.description: Assay for the inhibition of αIIbβ3 integrin binding (fibrinogen as ligand, integrin captured from platelet lysate)
- applied.conditions: inhibition of specific binding of biotinylated fibrinogen to αIIbβ3 integrin from human platelet lysate
quantity.measured: IC50 (nM)

Before answering, review these 3 worked examples.
{"compound": "O=C(N[C@@H](CNC(=O)C1CCN(c2cccc(NC3=NCC(F)(F)CN3)c2)CC1)C(=O)O)OCc1ccccc1", "IC50 [nM]": 95}
{"compound": "Cc1ccc(N2CCC(C(=O)NC[C@H](NC(=O)OCc3ccccc3)C(=O)O)CC2)cc1NC1=NCCCN1", "IC50 [nM]": 94}
{"compound": "COCCOC(=O)N[C@@H](CNC(=O)C1CCN(c2cccc(NC3=NCCCN3)c2)CC1)C(=O)O", "IC50 [nM]": 60}

(P) CC(C)COC(=O)N[C@@H](CNC(=O)C1CCN(c2cccc(NC3=NCC(F)CN3)c2)CC1)C(=O)O (stereo partly drawn)
(Q) CCCCCCOC(=O)N[C@@H](CCC(=O)N1CCN(c2cccc(NC3=NCCCN3)c2)CC1)C(=O)O
(R) O=C(N[C@@H](CNC(=O)C1CCC(c2cccc(NC3=NCCCN3)c2)CC1)C(=O)O)OCc1ccccc1 (single isomer, unassigned) [Ex. 151B]
(S) O=C(NCc1ccccc1)Nc1cccc(N2CCC(C(=O)NC[C@H](NC(=O)OCc3ccccc3)C(=O)O)CC2)c1
(T) O=C(N[C@@H](CCC(=O)N1CCN(c2cccc(NC3=NCC(O)CN3)c2)CC1)C(=O)O)OCc1ccccc1 (stereo partly drawn)
Returns the items ordered by IC50, from maximum to minimum. Lab note: final answer is the ordered label list. S, Q, R, T, P

(1) CC(C)COC(=O)N[C@@H](CNC(=O)C1CCN(c2cc(NC3=NCCCN3)ccn2)CC1)C(=O)O
(2) CCCCCCOC(=O)N[C@@H](CNC(=O)C1CCN(c2cccc(NC3=NCCCN3)c2)CC1)C(=O)O
(3) O=C(C[C@H](NC(=O)OCc1ccccc1)C(=O)O)NC1CCN(c2cccc(NC3=NCCCN3)c2)CC1
(4) CC(C)COC(=O)N[C@@H](CNC(=O)C1CCN(c2cccc(NC3=NCC(C)(C)CN3)c2)CC1)C(=O)O
Sort the 4 compounds by IC50; largest first, smallest last. I'd appreciate it if you listed the labels in the requested order. 3, 4, 1, 2
(3: 4200 nM, 4: 310 nM, 1: 77 nM, 2: 26 nM)

====

- test.target: αvβ3 integrin (Homo sapiens, UniProt P05106+P06756)
- Sequence (P06756 31-889 limits assumed): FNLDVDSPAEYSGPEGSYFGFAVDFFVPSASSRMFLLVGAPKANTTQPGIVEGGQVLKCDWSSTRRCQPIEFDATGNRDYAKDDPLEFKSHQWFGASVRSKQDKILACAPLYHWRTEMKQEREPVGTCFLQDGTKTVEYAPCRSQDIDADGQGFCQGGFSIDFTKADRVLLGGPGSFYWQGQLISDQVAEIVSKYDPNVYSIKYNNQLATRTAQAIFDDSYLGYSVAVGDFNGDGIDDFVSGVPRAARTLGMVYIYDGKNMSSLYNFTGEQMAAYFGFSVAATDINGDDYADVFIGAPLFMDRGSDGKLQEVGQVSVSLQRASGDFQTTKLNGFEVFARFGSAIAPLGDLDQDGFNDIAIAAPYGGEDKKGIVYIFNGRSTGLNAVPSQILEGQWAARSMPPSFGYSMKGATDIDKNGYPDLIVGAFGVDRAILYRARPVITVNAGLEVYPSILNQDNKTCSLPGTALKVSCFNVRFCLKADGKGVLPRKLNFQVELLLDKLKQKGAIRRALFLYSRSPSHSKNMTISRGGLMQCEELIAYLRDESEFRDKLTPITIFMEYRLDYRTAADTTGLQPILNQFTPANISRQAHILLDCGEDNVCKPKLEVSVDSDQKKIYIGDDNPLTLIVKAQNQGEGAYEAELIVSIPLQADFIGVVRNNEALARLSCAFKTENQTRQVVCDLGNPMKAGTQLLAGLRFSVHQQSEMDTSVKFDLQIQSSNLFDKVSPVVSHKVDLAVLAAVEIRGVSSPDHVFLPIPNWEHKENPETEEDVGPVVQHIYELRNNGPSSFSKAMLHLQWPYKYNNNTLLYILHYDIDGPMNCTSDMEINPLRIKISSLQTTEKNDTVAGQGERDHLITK
- Sequence (P06756 891-1048 partner limits assumed): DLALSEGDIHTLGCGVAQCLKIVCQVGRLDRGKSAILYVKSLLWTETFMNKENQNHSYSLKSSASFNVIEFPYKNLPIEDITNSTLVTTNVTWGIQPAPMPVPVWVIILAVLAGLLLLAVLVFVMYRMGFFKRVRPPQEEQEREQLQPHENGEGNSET
- Sequence (P05106 27-788): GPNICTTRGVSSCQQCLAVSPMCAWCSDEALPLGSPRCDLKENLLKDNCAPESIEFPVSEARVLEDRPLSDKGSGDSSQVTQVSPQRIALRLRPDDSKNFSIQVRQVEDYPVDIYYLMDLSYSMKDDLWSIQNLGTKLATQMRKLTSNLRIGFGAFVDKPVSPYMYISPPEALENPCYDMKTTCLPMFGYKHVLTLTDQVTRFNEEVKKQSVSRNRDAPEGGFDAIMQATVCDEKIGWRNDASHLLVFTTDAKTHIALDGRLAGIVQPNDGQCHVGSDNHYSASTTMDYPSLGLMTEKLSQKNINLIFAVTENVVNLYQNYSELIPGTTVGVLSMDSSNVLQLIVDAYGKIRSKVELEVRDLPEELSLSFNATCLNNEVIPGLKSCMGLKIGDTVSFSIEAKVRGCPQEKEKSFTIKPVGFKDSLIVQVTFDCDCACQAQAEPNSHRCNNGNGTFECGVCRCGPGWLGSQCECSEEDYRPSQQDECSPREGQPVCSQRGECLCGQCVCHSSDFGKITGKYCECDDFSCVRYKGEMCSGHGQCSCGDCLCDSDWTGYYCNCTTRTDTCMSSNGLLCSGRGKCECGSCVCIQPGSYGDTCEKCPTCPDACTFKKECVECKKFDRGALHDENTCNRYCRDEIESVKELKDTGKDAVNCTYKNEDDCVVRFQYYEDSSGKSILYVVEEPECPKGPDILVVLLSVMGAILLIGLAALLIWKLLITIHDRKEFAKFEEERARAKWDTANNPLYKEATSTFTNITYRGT
- run.description: Assay for the inhibition of αvβ3 integrin binding (vitronectin as ligand)
- Design: purchased Chemicon International, Inc., USA
- applied.conditions: inhibition of specific binding of biotinylated human vitronectin to immobilized αvβ3 integrin
quantity.measured: IC50 (nM)

Some entries whose results are on file:
{"compound": "O=C(N[C@@H](CCC(=O)N1CCN(c2cc(NC3=NCCCN3)ccc2F)CC1)C(=O)O)OCc1ccccc1 [Ex. 155]", "quantity.measured": "IC50", "measurement.units": "nM", "number": 0.077}
{"compound": "O=C(N[C@@H](CNC(=O)N1CCN(c2cccc(NC3=NCCCN3)c2)CC1)C(=O)O)OCc1ccccc1 [Ex. 145]", "quantity.measured": "IC50", "measurement.units": "nM", "number": 0.041}
{"compound": "O=C(N[C@@H](CCC(=O)N1CCC(c2cccc(NC3=NCCCN3)c2)CC1)C(=O)O)OCc1ccccc1 [Ex. 148]", "quantity.measured": "IC50", "measurement.units": "nM", "number": 0.17}

(a) O=C(C[C@H](NC(=O)OCc1ccccc1)C(=O)O)NC1CCN(c2cccc(NC3=NCCCN3)c2)CC1 [Ex. 146]
(b) CC(C)(C)COC(=O)N[C@@H](CNC(=O)C1CCN(c2cccc(NC3=NCCCN3)c2)CC1)C(=O)O [Ex. 93]
(c) CCCCCCOC(=O)N[C@@H](CCC(=O)N1CCN(c2cccc(NC3=NCC(F)CN3)c2)CC1)C(=O)O (stereo partly shown) [Ex. 130]
(d) CC(C)COC(=O)N[C@@H](CCC(=O)N1CCN(c2cccc(NC3=NCC(C)(C)CN3)c2)CC1)C(=O)O [Ex. 126]
Sort ascending by IC50. The labels, placed in the requested order, form the answer. c, b, d, a

====

- test.target: αvβ3 integrin (Homo sapiens, UniProt P05106+P06756)
- run.description: Assay for the inhibition of αvβ3 integrin binding (vitronectin as ligand)
- Set-up: purchased Chemicon International, Inc., USA
- applied.conditions: inhibition of specific binding of biotinylated human vitronectin to immobilized αvβ3 integrin
quantity.measured: IC50 (nM)

Known IC50 results, listed for orientation:
{"compound": "O=C(N[C@@H](CCC(=O)N1CCN(c2cc(F)cc(NC3=NCCCN3)c2)CC1)C(=O)O)OCc1ccccc1", "IC50 [nM]": 0.14}
{"compound": "O=C(N[C@@H](CNC(=O)C1CCC(c2cccc(NC3=NCCCN3)c2)CC1)C(=O)O)OCc1ccccc1 (single isomer, unassigned) [Ex. 151A]", "IC50 [nM]": 0.074}
{"compound": "COc1ccc(NC2=NCCCN2)cc1N1CCN(C(=O)CC[C@H](NC(=O)OCc2ccccc2)C(=O)O)CC1", "IC50 [nM]": 0.096}
{"compound": "CCCCCCCCCCOC(=O)N[C@@H](CCC(=O)N1CCN(c2cccc(NC3=NCC(O)CN3)c2)CC1)C(=O)O (stereo partly shown)", "IC50 [nM]": 0.64}
{"compound": "Cc1ccc(N2CCC(C(=O)NC[C@H](NC(=O)OCc3ccccc3)C(=O)O)CC2)cc1NC1=NCCCN1", "IC50 [nM]": 0.14}

(I) CC(C)COC(=O)N[C@@H](CNC(=O)C1CCN(c2cccc(NC3=NCC(C)(C)CN3)c2)CC1)C(=O)O
(II) O=C(Cc1ccccc1)N[C@@H](CCC(=O)N1CCN(c2cccc(NC3=NCCCN3)c2)CC1)C(=O)O
Identify the entry with the larger IC50. Options: I and II Let me know the label of the one you choose. II
(II: 6.8 nM, I: 0.13 nM)

====

- test.target: αvβ3 integrin (Homo sapiens, UniProt P05106+P06756)
- run.description: Assay for the inhibition of αvβ3 integrin binding (vitronectin as ligand)
- Design: purchased Chemicon International, Inc., USA
- applied.conditions: inhibition of specific binding of biotinylated human vitronectin to immobilized αvβ3 integrin
quantity.measured: IC50 (nM)

{"compound": "O=C(N[C@@H](CNC(=O)C1CCN(c2cc(NC3=NCC(F)CN3)ccn2)CC1)C(=O)O)OCc1ccccc1 (stereo partly shown) [Ex. 160]", "IC50, nM": 0.046}

(a) CC(C)COC(=O)N[C@@H](CCC(=O)N1CCN(c2cccc(NC3=NCCCN3)c2)CC1)C(=O)O [Ex. 138]
(b) Cc1cc(C)c(S(=O)(=O)N[C@@H](CCC(=O)N2CCN(c3cccc(NC4=NCCCN4)c3)CC2)C(=O)O)c(C)c1 [Ex. 140]
Problem: Given the entries a and b , determine which has the lower reported IC50. Mark your answer with the label of the selected entry. b
(b: 0.22 nM, a: 0.32 nM)

(a) O=C(N[C@@H](CCC(=O)N1CCN(c2cccc(NC3=NCC(O)CN3)c2)CC1)C(=O)O)OCc1ccccc1 (stereo partly shown) [Ex. 125]
(b) CCCCCCOC(=O)N[C@@H](CNC(=O)C1CCN(c2cccc(NC3=NCCCN3)c2)CC1)C(=O)O [Ex. 88]
Which entry shows the lesser value of IC50 here, a or b ? Identify your pick by its label. b
(b: 0.051 nM, a: 0.15 nM)

(I) O=C(N[C@@H](CNC(=O)C1CCN(c2cccc(NC3=NCC(F)CN3)c2)CC1)C(=O)O)OCc1ccccc1 (stereo partly shown) [Ex. 13]
(II) CN(C[C@H](NC(=O)OCc1ccccc1)C(=O)O)C(=O)C1CCN(c2cccc(NC3=NCCCN3)c2)CC1 [Ex. 162]
Rank I against II by their IC50 values and give the higher one. Which one? Tell me its label. II

====

- test.target: αIIbβ3 integrin (Homo sapiens, UniProt P05106+P08514)
- Construct: from tissue; host or cells: human platelets (Triton X-100 lysate)
- run.description: Assay for the inhibition of αIIbβ3 integrin binding (fibrinogen as ligand, integrin captured from platelet lysate)
- applied.conditions: inhibition of specific binding of biotinylated fibrinogen to αIIbβ3 integrin from human platelet lysate
quantity.measured: IC50 (nM)

Worked examples, 8 compounds total:
{"compound": "O=C(N[C@@H](CNC(=O)C1CCN(c2cccc(NC3=NCC(F)CN3)c2)CC1)C(=O)O)OCc1ccccc1 (stereo partly drawn) [Ex. 13]", "test.target": "αIIbβ3 integrin (Homo sapiens, UniProt P05106+P08514)", "IC50 [nM]": 59}
{"compound": "O=C(N[C@@H](CNC(=O)C1CCC(c2cccc(NC3=NCCCN3)c2)CC1)C(=O)O)OCc1ccccc1 (single isomer, unassigned) [Ex. 151A]", "test.target": "αIIbβ3 integrin (Homo sapiens, UniProt P05106+P08514)", "IC50 [nM]": 37}
{"compound": "O=C(N[C@@H](CCC(=O)N1CCN(c2cc(F)cc(NC3=NCCCN3)c2)CC1)C(=O)O)OCc1ccccc1 [Ex. 158]", "test.target": "αIIbβ3 integrin (Homo sapiens, UniProt P05106+P08514)", "IC50 [nM]": 750}
{"compound": "CC(C)COC(=O)N[C@@H](CNC(=O)C1CCN(c2cccc(NC3=NCCCN3)c2)CC1)C(=O)O [Ex. 92]", "test.target": "αIIbβ3 integrin (Homo sapiens, UniProt P05106+P08514)", "IC50 [nM]": 72}
{"compound": "CC(C)(C)COC(=O)N[C@@H](CNC(=O)C1CCN(c2cccc(NC3=NCCCN3)c2)CC1)C(=O)O [Ex. 93]", "test.target": "αIIbβ3 integrin (Homo sapiens, UniProt P05106+P08514)", "IC50 [nM]": 150}
{"compound": "CCCCCCOC(=O)N[C@@H](CCC(=O)N1CCN(c2cccc(NC3=NCC(O)CN3)c2)CC1)C(=O)O (stereo partly drawn) [Ex. 131]", "test.target": "αIIbβ3 integrin (Homo sapiens, UniProt P05106+P08514)", "IC50 [nM]": 57}
{"compound": "CC1(C)CN=C(Nc2cccc(N3CCC(C(=O)NC[C@H](NC(=O)OCc4ccccc4)C(=O)O)CC3)c2)NC1 [Ex. 11]", "test.target": "αIIbβ3 integrin (Homo sapiens, UniProt P05106+P08514)", "IC50 [nM]": 87}
{"compound": "CCCCCCCCOC(=O)N[C@@H](CNC(=O)C1CCN(c2cccc(NC3=NCCCN3)c2)CC1)C(=O)O [Ex. 89]", "test.target": "αIIbβ3 integrin (Homo sapiens, UniProt P05106+P08514)", "IC50 [nM]": 96}

(I) CCCCOC(=O)N[C@@H](CNC(=O)C1CCN(c2cccc(NC3=NCCCN3)c2)CC1)C(=O)O [Ex. 87]
(II) O=C(N[C@@H](CNC(=O)C1CCN(c2cccc(NC3=NCCN3)c2)CC1)C(=O)O)OCc1ccccc1 [Ex. 9]
(III) COc1ccc(NC2=NCCCN2)cc1N1CCC(C(=O)NC[C@H](NC(=O)OCc2ccccc2)C(=O)O)CC1 [Ex. 152]
(IV) O=C(N[C@@H](CCC(=O)N1CCN(c2cccc(NC3=NCCCCN3)c2)CC1)C(=O)O)OCc1ccccc1 [Ex. 123]
In this exercise, place the 4 compounds in ascending sequence of their recorded IC50. # format: label list in the order the request specifies III, II, I, IV

# credit: patent US7176199B2
